# System: V79mzhu1B1 cells (express the enzyme CYP1B1)
Recorded Endpoint: pIC50
Kindly note that pIC50 refers to -log10 of the concentration in mol/L and answer with the value alone.

State the recorded pIC50 for this entry: COc1ccc(/C=C/c2ccc(OC)cc2)cc1 [Compound IIIb, (E)-(4,4′)-Dimethoxystilbene]
5.08

---

Can you tell me IC50 at 48 h for the items I'm about to list?
# Experiment Description: MTT cytotoxicity assay, cell line expressing CYP1B1
# Experimental Conditions: Chinese hamster, V79mzhu1B1 cells (V79 cells that express CYP1B1)
The answer is to be given in nM; state only the numeric part.

State the recorded IC50 at 48 h for this entry: `COc1cc(C(=O)/C=C/c2ccc(O)cc2)cc(OC)c1OC`
1710

Consider next the molecule `COc1ccc(/C=C(\C#N)c2cccnc2)cc1` in the same way.
1630

Consider next the molecule `COc1ccc(/C=C/C(=O)c2cc(OC)c(OC)c(OC)c2)cc1` in the same way.
5

---

# Test system: V79mz cells (parental cell line which does not express CYP1B1)
Recorded Endpoint: pIC50
Kindly note that pIC50 refers to -log10 of the concentration in mol/L and answer with the value alone.

Checklist item: pIC50 tested on V79mz cells (parental cell line which does not express CYP1B1), entry COc1ccc(/C=C/c2ccc(OC)cc2)cc1 [Compound IIIb, (E)-(4,4′)-Dimethoxystilbene] , value?
4.24
